# TARGET DESC: Recombinant human HSD17B13 enzyme (Homo sapiens)
# EXPERIMENT NOTES: HSD17b13 NAD(P)H-Glo biochemical assay
# MEASUREMENT CONDITIONS: 50 uM estradiol, 1 mM NAD+, NAD(P)H-Glo luminescence; read-out: HSD17β13 IC50
Recorded measurements of IC50, one per entry

Reference set, count: 5
CS(=O)(=O)N1CC2(CN(c3ccc(-n4ncc5cc(F)c(O)c(F)c54)cc3)C2)C1 [Compound 20.23] ... 100 to 1000 nM
Oc1c(F)cc2cnn(-c3ccc(C4CCOCC4)cc3)c2c1F [Compound 27.6] ... < 100 nM
CC1(C)CCN(c2ccc(-n3ncc4c(Cl)c(F)c(O)cc43)cc2)CC1 [Compound 5.2] ... 100 to 1000 nM
CC(C)N1CCN(c2ccc(-n3ncc4cc(F)c(O)c(F)c43)cc2)CC1 [Compound 24.2] ... 100 to 1000 nM
Oc1cc2c(cnn2-c2ccc(-c3ccc(F)cc3)cc2)cc1F [Compound 13.5] ... 100 to 1000 nM

**Q:** Requested read-out: IC50. Entry: Oc1cccc(-c2ccc(-n3ncc4c(F)cc(O)c(F)c43)cc2)c1 [Compound 16]
**A:** 100 to 1000 nM

**Q:** For the compound shown here, CC1(C)CCN(c2ccc(-n3c(=O)[nH]c4cc(F)c(O)c(F)c43)cc2)CC1 [Compound 11] , give the reported IC50.
**A:** < 100 nM

* * *

# TARGET DESC: Recombinant human HSD17B13 enzyme (Homo sapiens)
# EXPERIMENT NOTES: HSD17b13 NAD(P)H-Glo biochemical assay
# MEASUREMENT CONDITIONS: 50 uM estradiol, 1 mM NAD+, NAD(P)H-Glo luminescence; read-out: HSD17β13 IC50
pIC50: −log10 of the molar value.
# pIC50 per entry

Worked cases, pIC50 given:
Oc1c(F)cc2cnn(-c3ccc(C4CCCCC4)cc3)c2c1F [Compound 27.5] ... > 7.00
CC1(C)COCCN1c1ccc(-n2ncc3cc(F)c(O)c(F)c32)cc1 [Compound 20.6] ... 6.00 to 7.00
Oc1c(F)cc2nnn(-c3ccc(N4CCO[C@H](c5ccccc5)C4)cc3)c2c1F [Compound 26.27] ... 6.00 to 7.00

**Q:** Can you share its pIC50? I mean this molecule: CC1(C)CCN(c2ccc(-n3nnc4cc(F)c(O)c(F)c43)nn2)CC1 [Compound 26.23]
**A:** 6.00 to 7.00

**Q:** I have this molecule here, Oc1c(F)cc2nnn(-c3cnc(N4CC5(CCOCC5)C4)nc3)c2c1F [Compound 42.1] , and I need its recorded pIC50.
**A:** 4.52 to 6.00

**Q:** Please look up its pIC50: Oc1cccc(-c2ccc(-n3ncc4c(F)c(F)c(O)cc43)cc2)c1 [Compound 8]
**A:** 6.00 to 7.00

**Q:** Data request, read-out pIC50, for Oc1cc2c(cnn2-c2ccc(-c3ccccc3)cc2)cc1F [Compound 2.2]
**A:** 6.00 to 7.00

* * *

Measured pIC50 by item
# TARGET DESC: Recombinant human HSD17B13 enzyme (Homo sapiens)
# Sequence (Q7Z5P4 20-300): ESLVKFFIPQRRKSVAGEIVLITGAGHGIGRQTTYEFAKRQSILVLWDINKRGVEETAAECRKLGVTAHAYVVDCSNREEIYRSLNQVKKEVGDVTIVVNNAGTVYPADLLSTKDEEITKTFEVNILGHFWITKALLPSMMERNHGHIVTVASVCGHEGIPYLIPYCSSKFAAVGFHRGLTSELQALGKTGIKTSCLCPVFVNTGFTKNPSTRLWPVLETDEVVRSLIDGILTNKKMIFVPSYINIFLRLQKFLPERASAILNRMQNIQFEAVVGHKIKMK
# EXPERIMENT NOTES: HSD17b13 NAD(P)H-Glo biochemical assay
# MEASUREMENT CONDITIONS: 50 uM estradiol, 1 mM NAD+, NAD(P)H-Glo luminescence; read-out: HSD17β13 IC50
pIC50: −log10 of the molar value.

Consider the worked cases shown below.
CC1(C)CCN(c2ccc(-n3ncc4c(C#N)c(F)c(O)cc43)cc2)CC1 ... 6.00 to 7.00
Oc1c(F)cc2cnn(-c3ccc(-c4ccc(Cl)cc4)cc3)c2c1F ... > 7.00

**Q:** Give the measured pIC50 of Oc1cc2c(cnn2-c2ccc(-c3ccccc3F)cc2)cc1F .
**A:** 6.00 to 7.00

**Q:** What value of pIC50 has been reported for the following compound? CN1CCC(c2ccc(-n3ncc4cc(F)c(O)c(F)c43)cc2)CC1
**A:** 6.00 to 7.00

**Q:** Quick check: pIC50 of CS(=O)(=O)N1CCN(c2ccc(-n3nnc4cc(F)c(O)c(F)c43)cc2)CC1 ?
**A:** > 7.00

* * *

# TARGET DESC: Recombinant human HSD17B13 enzyme (Homo sapiens, UniProt Q7Z5P4)
# EXPERIMENT NOTES: HSD17b13 NAD(P)H-Glo biochemical assay
# MEASUREMENT CONDITIONS: 50 uM estradiol, 1 mM NAD+, NAD(P)H-Glo luminescence; read-out: HSD17β13 IC50
# Experimental: Example B-1: HSD17b13 NAD(P)H-Glo Biochemical Assay Recombinant human HSD17B13 enzyme. Substrate: estradiol (Sigma β-Estradiol E8875), 100 mM in DMSO. Cofactor: NAD+ Grade I free acid (Sigma 10127965001), 20 mM in H2O. […] Enzymatic activity detected by NAD(P)H-Glo™ Detection System (Promega G9062). […] HSD17b13 enzyme was diluted in 1× assay buffer to the desired enzyme concentration based on the specific activity of the enzyme lot. […] After incubating for 1 hour at RT, luminescence was measured.
Entries and their IC50 values follow.

// known answers, use as guide
CC1(C)CCN(c2ccc(-n3nnc4cc(F)c(O)c(F)c43)nc2)CC1 ... < 100 nM
Cc1cc(N2CCN(S(C)(=O)=O)CC2)ccc1-n1ncc2cc(F)c(O)c(F)c21 ... 100 to 1000 nM
CC1(C)CCN(c2ccc(-n3ncc4cc(F)c(O)c(C#N)c43)cc2)CC1 ... 100 to 1000 nM

**Q:** Endpoint output: IC50 of O=S1(=O)CCN(c2ccc(-n3ncc4cc(F)c(O)c(F)c43)cc2)CC1 . Value?
**A:** 100 to 1000 nM

**Q:** IC50 for CS(=O)(=O)Nc1cccc(-c2ccc(-n3ncc4cc(F)c(O)cc43)cc2)c1 ?
**A:** 1000 to 30000 nM

**Q:** What measured IC50 goes with CS(=O)(=O)N1CCN(c2ccc(-n3ncc4cc(F)c(O)c(Cl)c43)cc2)CC1 ?
**A:** 100 to 1000 nM

**Q:** Please look up its IC50: CS(=O)(=O)NC1CN(c2ccc(-n3ncc4cc(F)c(O)cc43)cc2)C1
**A:** 1000 to 30000 nM

**Q:** Please look up its IC50: CS(=O)(=O)Nc1ccc(-c2ccc(-n3ncc4cc(F)c(O)cc43)cc2)cc1
**A:** 100 to 1000 nM

* * *

# TARGET DESC: Recombinant human HSD17B13 enzyme (Homo sapiens, UniProt Q7Z5P4)
# Sequence (Q7Z5P4 20-300): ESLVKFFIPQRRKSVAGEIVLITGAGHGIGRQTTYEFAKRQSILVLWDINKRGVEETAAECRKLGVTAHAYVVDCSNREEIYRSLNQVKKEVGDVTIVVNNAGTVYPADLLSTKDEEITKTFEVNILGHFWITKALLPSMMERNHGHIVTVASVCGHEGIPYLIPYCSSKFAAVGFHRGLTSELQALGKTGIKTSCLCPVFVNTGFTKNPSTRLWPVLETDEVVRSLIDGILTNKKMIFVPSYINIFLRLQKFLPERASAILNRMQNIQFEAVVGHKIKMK
# EXPERIMENT NOTES: HSD17b13 NAD(P)H-Glo biochemical assay
# MEASUREMENT CONDITIONS: 50 uM estradiol, 1 mM NAD+, NAD(P)H-Glo luminescence; read-out: HSD17β13 IC50
pIC50: −log10 of the molar value.
Recorded measurements of pIC50, one per entry

Sample records with pIC50:
CC1(CO)CN(c2ccc(-n3ncc4cc(F)c(O)c(F)c43)cc2)C1 ... 6.00 to 7.00
CC1(C)CCC(c2ccc(-n3ncc4cc(F)c(O)c(F)c43)cc2)CC1 ... > 7.00
CC1(C#N)CN(c2ccc(-n3ncc4cc(F)c(O)c(F)c43)cc2)C1 ... > 7.00

**Q:** Which pIC50 value is on record for CC1(C)CCN(c2ccc(-n3ncc4cc(F)c(O)c(F)c43)cn2)CC1 ?
**A:** > 7.00

**Q:** Requested read-out: pIC50. Entry: N#Cc1ccc(-c2ccc(-n3ncc4cc(F)c(O)c(F)c43)cc2)cn1
**A:** > 7.00

**Q:** Look up pIC50: Oc1ccc(-c2ccc(-n3ncc4cc(F)c(O)cc43)cn2)cc1
**A:** 6.00 to 7.00

**Q:** pIC50 for CC1(C)CCN(c2ccc(-n3nnc4cc(F)c(O)c(F)c43)cc2)CC1 ?
**A:** > 7.00

**Q:** Dear colleague, I am looking for the recorded pIC50 of the following compound: CS(=O)(=O)N1CCN(c2ccc(-n3ncc4cc(F)c(O)c(F)c43)cn2)CC1
**A:** 6.00 to 7.00

Every entry's value here was drawn from patent US20240083853A1.
